Origin of the recorded values: patent US10662164B2

For each entry below, report its MIC value.
Tested on: S. aureus ATCC 29213
measurement_protocol: MIC determination
Type: cell-based, Staphylococcus aureus
assay_context: Staphylococcus aureus, ATCC29213, quality-control, methicillin-susceptible strain; Tables 1 and 5; read-out: MIC
Please reply with the bare figure in µg/mL and do not write the unit itself.

Ask: Look up and state reported MIC for Fc1ccc(Oc2ccc(-c3noc(-c4n[nH]cc4Cl)n3)cc2)cc1 [Compound 60c]
Reply: 1

Ask: Read off the recorded MIC for CC(=O)NC[C@H]1CN(c2ccc(N3CCOCC3)c(F)c2)C(=O)O1 [linezolid, reference compound]
Reply: 4

Ask: Report measured MIC; entry is Oc1ccc(-c2nc(-c3ccc(Oc4ccccc4)cc3Cl)no2)cc1 [Compound 52a]
Reply: 2

Ask: Identify measured MIC corresponding to Oc1ccc(-c2nc(-c3ccc(Oc4ccccc4)c(O)c3)no2)cc1 [Compound 51a]
Reply: 2

Ask: Specify measured MIC for [N-]=[N+]=Nc1cc(-c2noc(-c3ccc(O)cc3)n2)ccc1Oc1ccccc1 [Compound 53a] .
Reply: 2

Ask: State, in one line, measured MIC of `Oc1ccc(-c2nc(-c3ccc(Oc4ccc(C(F)(F)F)cc4)cc3)no2)cc1`
Reply: 2

Ask: Supply recorded MIC for FC(F)(F)c1ccc(Oc2ccc(-c3noc(-c4ccc5[nH]ccc5c4)n3)cc2)cc1 [Compound 75b] here.
Reply: 2
